Tested on: P. falciparum 3D7 growth, pLDH absorbance
assay.info: blood-stage malaria parasite growth potency – strain 3D7, dose response (AID 2305)
assay.metric: pIC50
Please note pIC50 is a logarithmic value: minus log10 of concentration in mol/L. Answer with that number alone.

[[record]]
molecule = "O=C(/C=C/c1ccc(Cl)c(Cl)c1)NCCCCCN1CCCN(C(=S)Nc2cccc(Cl)c2)CC1"
target_desc = "P. falciparum 3D7 growth, pLDH absorbance"
assay_metric = "pIC50"
test_result = 5.98

[[record]]
molecule = "c1cncc(CN2CCCN(c3ccc4c(c3)CCN(Cc3ccc(-c5ncc[nH]5)cc3)CC4)CC2)c1"
target_desc = "P. falciparum 3D7 growth, pLDH absorbance"
assay_metric = "pIC50"
test_result = 6.12

[[record]]
molecule = "O=C(Nc1cccc(Cl)c1)c1cnc(N2CCN(c3ccncc3)CC2)c(Cl)c1"
target_desc = "P. falciparum 3D7 growth, pLDH absorbance"
assay_metric = "pIC50"
test_result = 6.02

[[record]]
molecule = "Cc1c(C(=O)NC2CCC(CN3CCC(c4c[nH]c5ccccc45)CC3)CC2)cnn1-c1c(Cl)cc(Cl)cc1Cl (configuration not stated)"
target_desc = "P. falciparum 3D7 growth, pLDH absorbance"
assay_metric = "pIC50"
test_result = 6.15

[[record]]
molecule = "O=C(/C=C/c1ccc(Cl)c(Cl)c1)NCCCCCCN1CCCN(C(=O)Nc2ccc(F)c(F)c2)CC1"
target_desc = "P. falciparum 3D7 growth, pLDH absorbance"
assay_metric = "pIC50"
test_result = 5.91

[[record]]
molecule = "CO/C(=C\\C=C/c1cc2cc(Cl)c(Cl)cc2[nH]1)C(=O)NC1CC(C)(C)N(C)C(C)(C)C1"
target_desc = "P. falciparum 3D7 growth, pLDH absorbance"
assay_metric = "pIC50"
test_result = 6.08


Incoming: Quick check: pIC50 of O=C(Cc1ccccc1)NC(Nc1ccc([N+](=O)[O-])cc1)C(Cl)(Cl)Cl (configuration not stated) ?
Outgoing: 6.01
